Please go through the items and note down their pKd.
tgt: T1, Cyno PD-L1-rCD4-His (cynomolgus)
T1 construct: The entry as printed begins with the signal peptide; also called cynomolgus PD-L1-rCD4-His
test_method_notes: SPR, IgG1 from culture supernatant
Give bare numbers, as −log10 of the molar value.

Give pKd for all binders that follow.
1. G1/929_01_A06 (antibody, human IgG1, V domains shown, IgG1) VH: EVQLVQSGAEVKRPGASVKVSCKASGYTFTSYGISWVRQAPGQGLEWMGWISAYSGNANYAQKLQGRVTMTTDTSTSTAYMELRSLRSDDTAVYYCARDLFPTIFGVSYYYYWGQGTLVTVSS VL: DIQMTQSPSTLSASVGDRVTITCRASQSISGRLAWYQQKPGKAPNLLIYEASNLESGVPSRFSGSGSGTEFTLTINSLQPDDFATYYCQQANTFPRVSFGGGTKVEIKR
2. G1/929_01_A09 (antibody, human IgG1, V domains shown, IgG1; SGNA variant of G1/894_08_E05) VH: EVQLVQSGAEVKRPGASVKVSCKASGYTFTSYGISWVRQAPGQGLEWMGWISAYSGNANYAQKLQGRVTMTTDTSTSTAYMELRSLRSDDTAVYYCARDLFPTIFGVSYYYYWGQGTLVTVSS VL: DIQMTQSPSTLSASVGDRVTITCRASQSISGRLAWYQQKPGKAPNLLIYEASNLESGVPSRFSGSGSGTEFTLTISSLQPEDFATYYCQQSYSTPRVTFGQGTKVEIKR
3. G1/929_01_A10 (antibody, human IgG1, V domains shown, IgG1) VH: EVQLVQSGAEVKRPGASVKVSCKASGYTFTSYGISWVRQAPGQGLEWMGWISAYGGSTNYAQKLQGRVTMTTDTSTSTAYMELRSLRSDDTAVYYCARDLFPTIFGVSYYYYWGQGTLVTVSS VL: DIQMTQSPSTLSASVGDRVTITCRASQSISGRLAWYQQKPGKAPNLLIYEASNLESGVPSRFSGSGSGTEFTLTISSLQPEDFATYYCQQSYSWPRTFGQGTKVEIKR
4. G1/929_01_A05 (antibody, human IgG1, V domains shown, IgG1) VH: EVQLVQSGAEVKRPGASVKVSCKASGYTFTSYGISWVRQAPGQGLEWMGWISAYSGGTNYAQKLQGRVTMTTDTSTSTAYMELRSLRSDDTAVYYCARDLFPTIFGVSYYYYWGQGTLVTVSS VL: DIQMTQSPSTLSASVGDRVTITCRASQSISGRLAWYQQKPGKAPNLLIYEASNLESGVPSRFSGSGSGTEFTLTINSLQPDDFATYYCQQANTFPRVSFGGGTKVEIKR
5. G1/894_08_A05 (antibody, human IgG1, V domains shown, IgG1 without LALA, kappa light chain) VH: EVQLVQSGAEVKRPGASVKVSCKASGYTFTSYGISWVRQAPGQGLEWMGWISAYNSNTNYAQKLQGRVTMTTDTSTSTAYMELRSLRSDDTAVYYCARDLFPTIFGVSYYYYWGQGTLVTVSS VL: DIQMTQSPSTLSASVGDRVTITCRASQSISGRLAWYQQKPGKAPNLLIYEASNLESGVPSRFSGSGSGTEFTLTINSLQPDDFATYYCQQANTFPRVSFGGGTKVEIKR
6. G1/894_08_E05 (antibody, human IgG1, V domains shown, IgG1 without LALA, kappa light chain; also called G1/894_8_E05) VH: EVQLVQSGAEVKRPGASVKVSCKASGYTFTSYGISWVRQAPGQGLEWMGWISAYNSNTNYAQKLQGRVTMTTDTSTSTAYMELRSLRSDDTAVYYCARDLFPTIFGVSYYYYWGQGTLVTVSS VL: DIQMTQSPSTLSASVGDRVTITCRASQSISGRLAWYQQKPGKAPNLLIYEASNLESGVPSRFSGSGSGTEFTLTISSLQPEDFATYYCQQSYSTPRVTFGQGTKVEIKR

9.24
9.24
9.22
9.21
9.24
9.23
